MIC values, listed per item
# Test protocol: Antibacterial activity against Salmonella enterica ATCC 14028
# Type: functional

Take a look at these entries with their results.
| Compound | MIC |
| --- | --- |
| C/C(=N\NC(=N)N)c1ccc(CCc2ccc(/C(C)=N/NC(=N)N)cc2)cc1.Cl.Cl | > 500 µM |
| NCC[C@H](O)C(=O)N[C@@H]1C[C@H](N)[C@@H](O[C@H]2O[C@H](CN)[C@@H](O)[C@H](O)[C@H]2O)[C@H](O)[C@H]1O[C@H]1O[C@H](CO)[C@@H](O)[C@H](N)[C@H]1O [AMIKACIN] | 3.9 to 7.8 µM |
| Cl.N=C(N)N/N=C/c1ccc(-c2ccc(/C=N/Nc3ccc(Cl)cc3)cc2)cc1 | > 500 µM |
| C/C(=N\NC(=N)N)c1ccc(Oc2ccc(/C(C)=N/NC(=N)N)cc2)cc1.Cl.Cl | 125 µM |
| C/C(=N\NC(=N)N)c1ccc(Cc2ccc(/C(C)=N/NC(=N)N)cc2)cc1.Cl.Cl | > 500 µM |
| C/C(=N\NC(=N)N)c1cccc(/C(C)=N/NC(=N)N)c1.Cl.Cl | 62.5 to 250 µM |

Task: # input compound: Cl.N#Cc1ccc(N/N=C/c2ccc(-c3ccc(/C=N/NC(=N)N)cc3)cc2)cc1 ; wanted: its MIC
Result: 15.6 µM

Task: Request the reported MIC associated with C/C(=N\NC(=N)N)c1ccc2c(c1)Cc1cc(/C(C)=N/NC(=N)N)ccc1-2.Cl.Cl
Result: 3.9 µM

Task: What MIC value was documented for this compound, CC1(C)S[C@@H]2[C@H](NC(=O)[C@H](N)c3ccccc3)C(=O)N2[C@H]1C(=O)O [AMPICILLIN] ?
Result: 250 µM

Task: Find the recorded MIC belonging to Cl.N=C(N)N/N=C/c1ccc(-c2ccc(/C=N/Nc3ccccc3Cl)cc2)cc1 and report it.
Result: > 500 µM

Task: MIC for C/C(=N\NC(=N)N)c1ccc(-c2ccc(/C(C)=N/NC(=N)N)cc2)cc1.Cl.Cl ?
Result: > 500 µM

Task: Query (compound): CC1COc2c(N3CCN(C)CC3)c(F)cc3c(=O)c(C(=O)O)cn1c23 (centres undefined) [OFLOXACIN] ; field requested: MIC
Result: 15.6 to 31.3 µM

Task: Suppose we examine the compound C/C(=N\NC(=N)N)c1ccc(-c2ccc(/C(C)=N/Nc3ccccc3Cl)cc2)cc1 ; what MIC value has been reported?
Result: 62.5 to 125 µM

Task: Looking for the measured MIC of Cl.Cl.N=C(N)N/N=C/c1ccc(-c2cccc(/C=N/NC(=N)N)c2)cc1 , can you help?
Result: > 500 µM

Task: Return reported MIC; argument: Cl.N=C(N)N/N=C/c1ccc(-c2ccc(/C=N/Nc3ccc(F)cc3F)cc2)cc1
Result: > 500 µM

Task: Fill in the blank: the reported MIC of N=C(N)N/N=C/c1ccc(-c2ccc(/C=N/Nc3ccc(Cl)cc3Cl)cc2)cc1 is ____.
Result: > 500 µM

Task: Would you kindly share the measured MIC for Cl.Cl.N=C(N)N/N=C/c1ccc(-c2ccc(/C=N/NC(=N)N)cc2)cc1 ?
Result: > 500 µM

Task: Need MIC, item C/C(=N\NC(=N)N)c1ccc(/C(C)=N/NC(=N)N)cc1
Result: 250 to 500 µM

Task: Entry Cl.N=C(N)N/N=C/c1ccc(-c2ccc(/C=N/Nc3ccccc3Br)cc2)cc1 has what MIC?
Result: > 500 µM
